Form field: half-life (one value per entry).
assay: Half life in rhesus monkey, iv; assay type: ADME, organism-based, Macaca mulatta; details: in vivo

chemical-structure: CC(C)(C)N1CCC(c2cc(-c3ccc(F)cc3F)c3ccc(=O)n(-c4c(Cl)cccc4Cl)c3c2)CC1
half-life [h]: 9.7
--
chemical-structure: CC(C)(C)N1CCC(c2cc(-c3ccc(F)cc3Cl)c3ccc(=O)n(-c4c(F)cccc4F)c3c2)CC1
half-life [h]: 9.55
--
chemical-structure: CC(C)(C)N1CCC(c2cc3c(ccc(=O)n3-c3c(Cl)cccc3Cl)c(-c3ccc(F)cc3Cl)n2)CC1
half-life [h]: 5.32
--
chemical-structure: CC(C)(C)N1CCC(c2cc3c(ccc(=O)n3-c3c(Cl)cccc3Cl)c(-c3ccc(F)cc3F)n2)CC1
half-life [h]: 6.5
--
chemical-structure: CC(C)(C)N1CCC(c2cc(-c3ccc(F)cc3Cl)c3ccc(=O)n(-c4c(Cl)cccc4Cl)c3c2)CC1
half-life [h]: 13.6

* * *

test: Volume of distribution in rhesus monkey; format: ADME, organism-based, Macaca mulatta; details: in vivo, read-out: Vdss

chemical-structure: CC(C)(C)N1CCC(c2cc(-c3ccc(F)cc3Cl)c3ccc(=O)n(-c4c(F)cccc4F)c3c2)CC1
units-of-measure: L/kg
Vd: 28.6

chemical-structure: CC(C)(C)N1CCC(c2cc3c(ccc(=O)n3-c3c(Cl)cccc3Cl)c(-c3ccc(F)cc3F)n2)CC1
units-of-measure: L/kg
Vd: 21.6

chemical-structure: CC(C)(C)N1CCC(c2cc(-c3ccc(F)cc3F)c3ccc(=O)n(-c4c(Cl)cccc4Cl)c3c2)CC1
units-of-measure: L/kg
Vd: 26.2

chemical-structure: CC(C)(C)N1CCC(c2cc3c(ccc(=O)n3-c3c(Cl)cccc3Cl)c(-c3ccc(F)cc3Cl)n2)CC1
units-of-measure: L/kg
Vd: 22.1

chemical-structure: CC(C)(C)N1CCC(c2cc(-c3ccc(F)cc3Cl)c3ccc(=O)n(-c4c(Cl)cccc4Cl)c3c2)CC1
units-of-measure: L/kg
Vd: 52.8

* * *

assay: Plasma clearance in rat; assay type: ADME, organism-based

compound: CC(C)(C)N1CCC(c2cc3c(ccc(=O)n3-c3c(Cl)cccc3Cl)c(-c3ccccc3Cl)n2)CC1
clearance: 25 mL/min/kg
//
compound: C[C@@H](C(=O)O)N1CCC(c2cc(-c3ccc(F)cc3Cl)c3ccc(=O)n(-c4c(Cl)cccc4Cl)c3c2)CC1
clearance: 59 mL/min/kg
//
compound: CC(C)(C)N1CCC(c2cc(-c3ccc(F)cc3Cl)c3ccc(=O)n(-c4c(F)cccc4F)c3c2)CC1
clearance: 18.5 mL/min/kg
//
compound: O=c1ccc2c(-c3ccc(F)cc3Cl)cc(C3CC4CCC(C3)N4)cc2n1-c1c(Cl)cccc1Cl (configuration not stated)
clearance: 37 mL/min/kg
//
compound: CN1C2CCC1CC(c1cc(-c3ccc(F)cc3Cl)c3ccc(=O)n(-c4c(Cl)cccc4Cl)c3c1)C2 (configuration not stated)
clearance: 27 mL/min/kg
//
compound: CC(C)(C)N1CCC(c2cc(-c3ccc(F)cc3Cl)c3ccc(=O)n(-c4c(Cl)cccc4Cl)c3c2)CC1
clearance: 14 mL/min/kg
//
compound: CC(C)(C)N1CCC(c2cc3c(ccc(=O)n3-c3c(Cl)cccc3Cl)c(-c3ccc(F)cc3Cl)n2)CC1
clearance: 39.6 mL/min/kg
//
compound: CC(C)N1C2CCC1CC(c1cc(-c3ccc(F)cc3Cl)c3ccc(=O)n(-c4c(Cl)cccc4Cl)c3c1)C2 (configuration not stated)
clearance: 18 mL/min/kg
//
compound: CC(C)(C)N1CCC(Oc2cc(-c3ccccc3Cl)c3ccc(=O)n(-c4c(Cl)cccc4Cl)c3c2)CC1
clearance: 34.1 mL/min/kg
//
compound: CC(C)(C)N1CCC(c2cc3c(ccc(=O)n3-c3c(Cl)cccc3Cl)c(-c3ccc(F)cc3F)n2)CC1
clearance: 32.3 mL/min/kg
//
compound: CC(C)(C)N1CCC(c2cc(-c3ccc(F)cc3F)c3ccc(=O)n(-c4c(Cl)cccc4Cl)c3c2)CC1
clearance: 11.9 mL/min/kg
//
compound: CC1(C)C=C(c2cc(-c3ccc(F)cc3Cl)c3ccc(=O)n(-c4c(Cl)cccc4Cl)c3c2)CC(C)(C)N1
clearance: 30.1 mL/min/kg
